# tested.on: SUMO (Homo sapiens, UniProt Q9UBT2)
# Sequence (Q9UBT2 whole entry): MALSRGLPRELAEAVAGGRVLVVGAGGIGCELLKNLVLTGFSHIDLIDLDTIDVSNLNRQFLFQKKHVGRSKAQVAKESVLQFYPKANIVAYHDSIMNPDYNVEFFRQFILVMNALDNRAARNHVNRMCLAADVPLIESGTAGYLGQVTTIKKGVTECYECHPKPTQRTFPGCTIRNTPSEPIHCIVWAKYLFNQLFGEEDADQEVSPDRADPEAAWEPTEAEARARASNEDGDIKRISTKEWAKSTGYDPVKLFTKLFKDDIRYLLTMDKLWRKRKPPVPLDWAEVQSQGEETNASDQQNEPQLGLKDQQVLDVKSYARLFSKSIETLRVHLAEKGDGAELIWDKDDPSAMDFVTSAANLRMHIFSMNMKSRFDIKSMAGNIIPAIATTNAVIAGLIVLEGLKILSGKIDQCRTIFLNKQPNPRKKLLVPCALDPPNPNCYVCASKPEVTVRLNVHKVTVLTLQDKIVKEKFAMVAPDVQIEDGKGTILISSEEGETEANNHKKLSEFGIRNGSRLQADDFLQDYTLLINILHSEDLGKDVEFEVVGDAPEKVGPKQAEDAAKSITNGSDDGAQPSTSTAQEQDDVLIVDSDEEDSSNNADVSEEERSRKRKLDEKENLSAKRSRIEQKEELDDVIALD
# Sequence (Q9UBE0 whole entry partner): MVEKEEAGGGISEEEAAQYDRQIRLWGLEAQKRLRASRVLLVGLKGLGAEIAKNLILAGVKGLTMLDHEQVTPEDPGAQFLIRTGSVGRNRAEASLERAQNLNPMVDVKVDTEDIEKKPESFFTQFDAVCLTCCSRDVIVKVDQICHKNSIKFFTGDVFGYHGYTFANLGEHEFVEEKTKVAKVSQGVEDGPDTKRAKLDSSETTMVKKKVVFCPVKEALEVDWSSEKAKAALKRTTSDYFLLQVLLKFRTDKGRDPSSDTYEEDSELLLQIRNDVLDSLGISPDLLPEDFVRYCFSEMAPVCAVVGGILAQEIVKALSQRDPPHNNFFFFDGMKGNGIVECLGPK
# protocol.details: SUMO activity (Table I, biological activities)
# Format: biochemical
# Parameters: key: + (less active); ++ (active); +++ (most active)
readout.label: SUMO

Requested read-out SUMO, target or system SUMO (Homo sapiens, UniProt Q9UBT2), entry COC(=O)C1=C(C(=O)OC)C2(C(Nc3ccccc3)c3ccc(CN4CCOCC4)cc3)C=CC1O2 (stereo not shown)
+

Find the measured SUMO: item COC(=O)C1=C(C(=O)Nc2ccccc2)C2C=CC1(C(Cc1ccccc1)Nc1cccc(CO)c1)O2 (stereo not shown) , target or system SUMO (Homo sapiens, UniProt Q9UBT2).
++

Field: SUMO (SUMO (Homo sapiens, UniProt Q9UBT2)). Entry: COC(=O)C1=C(C(=O)NC2CCN(c3ccccc3)CC2)C2C=CC1(C(Cc1ccccc1)Nc1ccccc1)O2 (stereo not shown)
+

Report SUMO for COC(=O)C1=C(C(=O)OC)C2(C(Nc3ccccc3)c3ccccc3)C=CC1O2 (stereo not shown) tested on SUMO (Homo sapiens, UniProt Q9UBT2).
++

Identify the measured SUMO of COC(=O)C1=C(C(=O)Nc2ccc(CN3CCCC3)cc2)C2C=CC1(C(Cc1ccccc1)Nc1ccccc1)O2 (stereo not shown) for SUMO (Homo sapiens, UniProt Q9UBT2).
++

What value of SUMO on SUMO (Homo sapiens, UniProt Q9UBT2) does COC(=O)C1=C(C(=O)NCC2CCCN2C)C2C=CC1(C(Cc1ccccc1)Nc1ccccc1)O2 (stereo not shown) have?
++

Further cases:
State its SUMO on SUMO (Homo sapiens, UniProt Q9UBT2): COC(=O)C1=C(C(=O)OC)C2(C(Cc3ccc(CC(C)C)cc3)Nc3ccccc3)C=CC1O2 (stereo not shown)
++

====

# tested.on: SUMO (Homo sapiens)
# protocol.details: SUMO activity (Table I, biological activities)
# Assay type: biochemical
# Design: key: + (less active); ++ (active); +++ (most active)
readout.label: SUMO

# example entries with known answers
Fill in the recorded SUMO for this molecule, with SUMO (Homo sapiens) as test system: COC(=O)C1=C(C(=O)OC)C2(C(Nc3ccccc3)C3CCOCC3)C=CC1O2 (centres unmarked) [Compound 192]
++

Form field - read-out: SUMO; system: SUMO (Homo sapiens); submitted item: COC(=O)C1=C(C(=O)NC2CCNCC2)C2C=CC1(C(Cc1ccccc1)Nc1ccccc1)O2 (centres unmarked) [Compound 225]
+++

# query: SUMO | item COC(=O)C1=C(C(=O)OC)C2(C(Cc3ccc(Nc4ccccc4)cc3)Nc3ccccc3)C=CC1O2 (centres unmarked) [Compound 683] | system: SUMO (Homo sapiens)
+

Record lookup: for SUMO (Homo sapiens), what SUMO belongs to CCOC(=O)C1=C(C(F)(F)F)C2(C(Cc3ccccc3)Oc3ccccc3)C=CC1O2 (centres unmarked) [Compound 513] ?
++

Observed SUMO on SUMO (Homo sapiens) for CCCCC(Nc1cc(F)cc(F)c1)C12C=CC(O1)C(C(=O)NCCN(C)C)=C2C(=O)OC (centres unmarked) [Compound 397] , please.
+

Continuing:
Give the reported SUMO for CCN(CC)CCNC(=O)C1=C(C(=O)OC)C2(C(Cc3ccccc3)Nc3cc(F)cc(Cl)c3)C=CC1O2 (centres unmarked) [Compound 376] (system: SUMO (Homo sapiens)).
+++

Fill in the recorded SUMO for this molecule, with SUMO (Homo sapiens) as test system: COC(=O)C1=C(C(=O)OC)C2(C(Cc3ccc(F)cc3)Nc3cc(F)cc(Cl)c3)C=CC1O2 (centres unmarked) [Compound 451]
+++

Fill in the recorded SUMO for this molecule, with SUMO (Homo sapiens) as test system: COC(=O)C1=C(C(=O)NCCO)C2C=CC1(C(Cc1ccccc1)Nc1ccccc1)O2 (centres unmarked) [Compound 152]
++

====

# tested.on: SUMO (Homo sapiens)
# protocol.details: SUMO activity (Table I, biological activities)
# Format: biochemical
# Set-up: key: + (less active); ++ (active); +++ (most active)
readout.label: SUMO

Known results for compounds:
Recorded SUMO for COC(=O)C1=C(C(=O)OC)C2(C(Cc3ccccc3Cl)Nc3ccc(Oc4ccccc4)cc3)C=CC1O2 (stereo not drawn) , please?
+

State the recorded SUMO for this entry: COC(=O)C1=C(C(=O)NC2CCN(C(=O)OC(C)(C)C)CC2)C2C=CC1(C(Cc1ccccc1)Nc1ccccc1)O2 (stereo not drawn)
+

What measured SUMO goes with COC(=O)C1=C(C(=O)OC)C2(C(Nc3ccccc3)c3cc4ccccc4nc3Cl)C=CC1O2 (stereo not drawn) ?
++

For the compound COC(=O)C1=C(C(=O)NCCN(C)C)C2C=CC1(C(Cc1ccccc1)Nc1ccc(F)cc1)O2 (stereo not drawn) , what SUMO is on record?
+++

Quick one: SUMO for C=CCCC(Nc1ccccc1)C12C=CC(O1)C(C(=O)OC)=C2C(=O)OC (stereo not drawn) ?
++

***
Name the reported SUMO value associated with the compound C#CCNC(=O)C1=C(C(=O)OC)C2(C(Cc3ccccc3)Nc3ccccc3)C=CC1O2 (stereo not drawn)
++

# query: SUMO of entry CCC12C=CC(C(Cc3ccccc3)Nc3ccccc3)(O1)C(C(=O)OC)=C2C(=O)OC (stereo not drawn)
++

What does the data say about its SUMO? Entry: COC(=O)C1=C(C(=O)NCCNS(=O)(=O)c2ccccc2)C2C=CC1(C(Cc1ccccc1)Nc1ccccc1)O2 (stereo not drawn)
++

For the compound shown here, COC(=O)C1=C(C(=O)NCCNC(=O)Nc2ccccc2)C2C=CC1(C(Cc1ccccc1)Nc1ccccc1)O2 (stereo not drawn) , give the reported SUMO.
++

For the compound shown here, CCOC(=O)C1=C(C(=O)Nc2c(C)cccc2C)C2C=CC1(C(Nc1ccccc1)c1ccc(CN3CCOCC3)cc1)O2 (stereo not drawn) , give the reported SUMO.
++

Returns the measured SUMO for the input compound. Input: CCOC(=O)C1=C(C(=O)Nc2c(C)cccc2CC)C2C=CC1(C(Nc1ccccc1)c1ccc(CN3CCOCC3)cc1)O2 (stereo not drawn)
++

If you can, please state the reported SUMO value of COC(=O)C1=C(C(=O)Nc2cccc(OC)c2)C2C=CC1(C(Cc1ccccc1)Nc1ccccc1)O2 (stereo not drawn) .
+

For the compound COC(=O)C1=C(C(=O)Nc2ccccc2)C2C=CC1(C(Cc1ccccc1)Nc1ccccc1)O2 (stereo not drawn) [Compound 163] , what SUMO is on record?
++

Param item = COC(=O)C1=C(C(=O)N(C)CCN(C)C)C2C=CC1(C(Cc1ccccc1)Nc1ccccc1)O2 (stereo not drawn) ; retrieve measured SUMO.
+

// returns reported SUMO for input O=C(C1=CC2(C(Cc3ccccc3)Nc3ccccc3)C=CC1O2)c1ccc(F)cc1 (stereo not drawn)
+

Can you share its SUMO? I mean this compound: CCN(CC)CCNC(=O)C1=C(C(=O)OC)C2(C(Cc3ccccc3F)Nc3cc(F)cc(F)c3)C=CC1O2 (stereo not drawn)
++

Value lookup for SUMO; key = C=CCC(Nc1ccccc1)C12C=CC(O1)C(C(=O)NCCN(C)C)=C2C(=O)OC (stereo not drawn)
++

Tell me the measured SUMO of COC(=O)C1=C(C(=O)Nc2ccc(OC)c(F)c2)C2C=CC1(C(Cc1ccccc1)Nc1ccccc1)O2 (stereo not drawn) , please.
+

What value of SUMO has been reported for the following compound? COC(=O)C1=C(C(=O)OC)C2(C(CCc3ccccc3)Nc3ccccc3)C=CC1O2 (stereo not drawn)
++

Name the recorded SUMO for COC(=O)C1=C(C(=O)OC)C2(C(Cc3ccccc3)Nc3cccc(F)c3)C=CC1O2 (stereo not drawn) .
++

Entry COC(=O)C1=C(C(=O)OC)C2(C(Cc3ccc(OC(C)C)cc3)Nc3ccccc3)C=CC1O2 (stereo not drawn) has what SUMO?
++

Query: SUMO; subject: CCN(CC)CCNC(=O)C1=C(C(=O)OC)C2(C(Cc3ccccc3)Nc3ccc(F)cc3F)C=CC1O2 (stereo not drawn) [Compound 410]
++

What value of SUMO has been reported for the following compound? COC(=O)C1=C(C(=O)NCCN(C)C)C2C=CC1(C(Cc1ccccc1)Nc1cc(F)cc(F)c1)O2 (stereo not drawn)
++

What measured SUMO goes with COC(=O)C1=C(C(=O)Nc2ccc(C)c(F)c2)C2C=CC1(C(Cc1ccccc1)Oc1cccnc1)O2 (stereo not drawn) ?
+

====

# tested.on: SUMO (Homo sapiens, UniProt Q9UBT2)
# protocol.details: SUMO activity (Table I, biological activities)
# Format: biochemical
# Set-up: key: + (less active); ++ (active); +++ (most active)
readout.label: SUMO

Recorded SUMO of COC(=O)C1=C(C(=O)NCCN(C)C)C2C=CC1(C(Cc1ccc(Cl)cc1)Nc1cc(F)cc(F)c1)O2 (stereo not shown) , please.
++

Give its SUMO value. Item: CCCCC(Nc1cc(F)cc(F)c1)C12C=CC(O1)C(C(=O)NCCN(CC)CC)=C2C(=O)OC (stereo not shown)
+

Which SUMO value is on record for COC(=O)C1=C(C(=O)NC2CCN(C(=O)OC(C)(C)C)CC2)C2C=CC1(C(Cc1ccccc1)Nc1cc(F)cc(F)c1)O2 (stereo not shown) [Compound 242] ?
++

Dear colleague, I am looking for the recorded SUMO of the following compound: CCCNC(=O)C1=C(C(=O)OC)C2(C(Cc3ccccc3)Nc3ccccc3)C=CC1O2 (stereo not shown)
++
